The reader will find reported melting point values listed item by item below.

compound="COc1cc(S(C)=O)c(C)cc1O (stereo unspecified)" assay_endpoint="melting point" value_observed="165 to 166 °C"
compound="CC(=O)Nc1ccc(N)c(C(O)c2ccccc2Cl)c1 (stereo unspecified)" assay_endpoint="melting point" value_observed="137 to 138 °C"
compound=COc1ccc(C(=O)Nc2ccccc2)cc1Nc1cc(Cl)cc(Cl)c1 assay_endpoint="melting point" value_observed="207 to 208 °C"
compound=COC(=O)N1C2CC3CC(C2)CC1C3 assay_endpoint="melting point" value_observed="88 °C"

Exercise: Which melting point reading was recorded for the compound CCOC(=O)C1=C(N2CCCC2)N=C(C)C(C(=O)OCC)C1c1ccccc1 (stereo unspecified) ?
Solution: 57 °C

Exercise: Quick one: melting point of CCCCCC(O)(c1cncnc1)C(C)(C)C (stereo unspecified) ?
Solution: 66 to 67 °C
